# RUN DESCRIPTION: HILIC, Merck SeQuant ZIC-pHILIC, 100 × 2.1 mm, 5 µm, 25 °C; gradient (min/%B) 0/3 1/3 12/30 14.5/90 17/90 18.5/3 24/3
# MEASUREMENT CONTEXT: stereoisomer not certain
MEASUREMENT NAME: LC retention time (min)

Examples with their reported LC retention time follow.
INSERT INTO measurements (compound, measurement_name, recorded_measurement) VALUES
  ('NC(=O)C[C@H](N)C(=O)O [L-Asparagine]', 'LC retention time', 13.2),
  ('COc1ccc2[nH]cc(CCN)c2c1 [5-methoxytryptamine]', 'LC retention time', 9.56),
  ('CCNC(=O)CC[C@H](N)C(=O)O [L-Theanine]', 'LC retention time', 10.6),
  ('O=C(O)c1ccc2ccccc2n1 [Quinaldic acid]', 'LC retention time', 1.9);

(A) O=C(O)c1cccnc1 [Nicotinic acid]
(B) N[C@@H](Cc1ccc(O)cc1)C(=O)O [L-tyrosine]
Returns: the label, A or B , whose recorded LC retention time is the lower number. Bench note: the answer is the label of the chosen record.
A
(A: 2.35 min, B: 11.2 min)
